MIC data for Streptococcus agalactiae follow.
Express it in µM; write the number only.

// MIC value for CC[C@H](C)[C@H](NC(=O)[C@H](CC(C)C)NC(=O)[C@@H](NC(=O)[C@@H](N)CC(=O)O)[C@@H](C)CC)C(=O)N[C@H](C(=O)N[C@H](C(=O)NCC(=O)NCC(=O)N[C@@H](CCCCN)C(=O)N[C@@H](CC(=O)O)C(=O)N[C@@H](CCCN=C(N)N)C(=O)N[C@@H](CCCCN)C(=O)N[C@@H](CCCCN)C(=O)N[C@@H](CCCN=C(N)N)C(=O)N[C@@H](CCCN=C(N)N)C(=O)N[C@@H](CCCN=C(N)N)C(N)=O)C(C)C)[C@@H](C)CC [DILIIVGGKDRKKRRR] : 8

// MIC value for CC[C@H](C)[C@H](NC(=O)[C@H](CC(C)C)NC(=O)[C@@H](NC(=O)[C@@H](N)CC(=O)O)[C@@H](C)CC)C(=O)N[C@H](C(=O)N[C@H](C(=O)NCC(=O)NCC(=O)N[C@@H](CCCN=C(N)N)C(=O)N[C@@H](CCCN=C(N)N)C(=O)N[C@@H](CCCN=C(N)N)C(=O)N[C@@H](CCCN=C(N)N)C(=O)N[C@@H](CCCN=C(N)N)C(=O)N[C@@H](CCCN=C(N)N)C(=O)N[C@@H](CCCN=C(N)N)C(=O)N[C@@H](CCCN=C(N)N)C(N)=O)C(C)C)[C@@H](C)CC [DILIIVGGRRRRRRRR] : 5.66
